Source of measurements: PubChem BioAssay AID1259407

- Tested on: CCRIS mutagenicity, Ames/micronucleus/aberration tests
- TEST_METHOD_NOTES: CCRIS mutagenicity studies
- ASSAY_SETUP: Test System: AMES SALMONELLA TYPHIMURIUM; Strain/Indicator: TA98; Metabolic Activation: NONE; Method: PREINCUBATION
The source made the active and inactive calls. No rule for the calls is given here.
// classify into 1.0 for active, 0.0 for inactive

[Q] Please let me know the test result on file for `Cn1c([N+](=O)[O-])nc2ncc(-c3ccccc3)cc21` .
[A] 1.0

[Q] Try `CNN` next.
[A] 0.0

[Q] Try `CCCCCCC[CH2][Sn]1([CH2]CCCCCCC)[O]C(=O)C=CC(=O)[O]1` next.
[A] 0.0

[Q] Try `CCn1cc(C(=O)O)c(=O)c2cnc(N3CCNCC3)nc21` next.
[A] 0.0

[Q] Try `Nc1ccc(-c2cc(Cl)c(N)c(Cl)c2)cc1` next.
[A] 0.0

[Q] Try CCCCC(CC)COCCC#N (configuration not stated) next.
[A] 0.0

[Q] Try `O=c1c2[nH]c3ccccc3c2nnn1/N=C/c1ccc([N+](=O)[O-])cc1` next.
[A] 1.0

[Q] Try `O=[N+]([O-])c1ccc2c(c1)Cc1cc([N+](=O)[O-])ccc1-2` next.
[A] 1.0

[Q] Try `COc1ccc(N)cc1N` next.
[A] 1.0

[Q] Try `NCCO` next.
[A] 0.0

[Q] Try `CCCCCCCCCCCCOS(=O)(=O)O` next.
[A] 0.0

[Q] Try `O=C(O)c1ccccc1[N+](=O)[O-]` next.
[A] 1.0

[Q] Try `CCC(C)(C)c1ccc(O)cc1` next.
[A] 0.0

[Q] Try `O[C@@H]1[C@H]2O[C@H]2c2c(ccc3cc4c(ccc5ccccc54)nc23)[C@H]1O` next.
[A] 1.0

[Q] Try CCN(CC)CCCC(C)Nc1ccnc2cc(Cl)ccc12 (configuration not stated) next.
[A] 0.0

[Q] Try `NNc1nncc2cccnc12` next.
[A] 1.0

[Q] Try `O=CC(Cl)(Cl)Cl` next.
[A] 0.0

[Q] Try `CCN(CC)S(=O)(=O)c1ccc(N)cc1` next.
[A] 0.0

[Q] Try `Nc1cccc(N)n1` next.
[A] 0.0

[Q] Try `C[C@H](CCC(=O)O)[C@H]1CC[C@H]2[C@@H]3CC[C@@H]4CC(=O)CC[C@]4(C)[C@H]3CC(=O)[C@]12C` next.
[A] 0.0

[Q] Try `CCc1ccc([N+](=O)[O-])cc1` next.
[A] 0.0

[Q] Try `CCCCCCCCCCCCCCCCCC(N)=O` next.
[A] 0.0

[Q] Try `O=[N+]([O-])c1cccc2oc3ccccc3c12` next.
[A] 0.0

[Q] Try `O=C(O)CN(CC(=O)O)CC(=O)O` next.
[A] 0.0

[Q] Try `ClC1=C(Cl)[C@]2(Cl)[C@@H]3[C@H]4C[C@H]([C@@H]5O[C@H]45)[C@@H]3[C@@]1(Cl)C2(Cl)Cl` next.
[A] 0.0

[Q] Try `N#CCCCCC#N` next.
[A] 0.0

[Q] Try `Oc1ccc(Nc2ccc3ccccc3c2)cc1` next.
[A] 0.0

[Q] Try `Cc1ccc(CO)cc1` next.
[A] 0.0

[Q] Try `O=[N+]([O-])c1cc(-c2ccc(O)c([N+](=O)[O-])c2)ccc1O` next.
[A] 0.0

[Q] Try `C=CCc1ccc(OC)cc1` next.
[A] 0.0

[Q] Try `O=[N+]([O-])c1ccc2c(c1)oc1ccccc12` next.
[A] 1.0

[Q] Try `CCCCCCCCCCCCCCCCN` next.
[A] 0.0
